system: A375 cells; assay: DELFIA cell proliferation (BrdU) in A375 cells; type: cell-based, human; settings: 10 μM inhibitor 30 min pretreatment, 100 nM CGS21680, 48 h
Readout label: inhibition of CGS21680-induced cell proliferation by signalling inhibitor

Cpd smiles: Oc1c2ccccc2c2c3c(cccc13)N=N2
Result: strongly reduced

Cpd smiles: N#CC(=C(/N)Sc1ccccc1N)/C(C#N)=C(/N)Sc1ccccc1N
Result: strongly reduced

Cpd smiles: CCCCCCCCCCCCCCCCCCOC[C@H](COP(=O)(O)O[C@H]1[C@H](O)[C@@H](O)[C@H](O)C[C@H]1OC)OC
Result: strongly reduced
